System: NOMO1
Protocol Summary: cell viability relative to DMSO control; higher = less cytotoxic
Setup Conditions: HPLM + 10% dialyzed FBS; 48 h; 0.0632 µM
Quick reference for cell viability among some compounds

Molecular String: CS[C@H]1SC[C@@H]2C(=O)N(C)[C@H](C(C)C)C(=O)OC[C@H](NC(=O)c3cnc4ccccc4n3)C(=O)N[C@H](C)C(=O)N(C)[C@H]1C(=O)N(C)[C@H](C(C)C)C(=O)OC[C@H](NC(=O)c1cnc3ccccc3n1)C(=O)N[C@H](C)C(=O)N2C
cell viability / %: 7.25

Molecular String: Oc1ccc(-c2ccc(-c3cc(Nc4cccc(CNC5CC5)c4)[nH]n3)cc2)c(O)c1
cell viability / %: 127

Molecular String: CN1CCC(CC1)=C2C3=C(C=CC=C3)\C=C/C4=C2C=CC=C4
cell viability / %: 133

====

Tested on: P12-Ichikawa
Protocol Summary: cell viability relative to DMSO control; higher = less cytotoxic
Setup Conditions: RPMI 5 mM glucose + 10% FBS; 48 h; 0.0632 µM
Readout: cell viability (%)

Compound: N#Cc1ccnc(N2C(=O)CC[C@H]2C(=O)N(c2cncc(F)c2)[C@H](C(=O)NC2CC(F)(F)C2)c2ccccc2Cl)c1
Readout: cell viability
Value Observed: 90.5

Compound: CCCCc1nc2cc(/C=C/C(=O)NO)ccc2n1CCN(CC)CC
Readout: cell viability
Value Observed: 101

Compound: C[N]1N=CC=C1C/2=C(\C)N(C(=O)C(=C2)/C(=O)NCC3=NC=C(C=C3)[S+](C)([O-])=O)C4=CC=CC(=C4)C(F)(F)F
Readout: cell viability
Value Observed: 112

Compound: CN(C)CCc1c[nH]c2ccc(C[S+](=O)([O-])N3CCCC3)cc12
Readout: cell viability
Value Observed: 109

Compound: CCOCC(O)COc1ccc(NC(=O)CC[S+](C)C)cc1 (stereo not drawn)
Readout: cell viability
Value Observed: 91.3

Compound: Oc1ccc2ccccc2c1SSc1c(O)ccc2ccccc12
Readout: cell viability
Value Observed: 101

Compound: C[C@H](NCc1ccc(OCc2cccc(F)c2)cc1)C(N)=O
Readout: cell viability
Value Observed: 124

Compound: CCOC(=O)[C@H]1O[C@@H]1C(=O)N[C@@H](CC(C)C)C(=O)NCCC(C)C
Readout: cell viability
Value Observed: 124

Compound: CS[C@H]1SC[C@@H]2C(=O)N(C)[C@H](C(C)C)C(=O)OC[C@H](NC(=O)c3cnc4ccccc4n3)C(=O)N[C@H](C)C(=O)N(C)[C@H]1C(=O)N(C)[C@H](C(C)C)C(=O)OC[C@H](NC(=O)c1cnc3ccccc3n1)C(=O)N[C@H](C)C(=O)N2C
Readout: cell viability
Value Observed: 6.52

Compound: NC(CO)C(=O)NNCc1ccc(O)c(O)c1O (stereo not drawn)
Readout: cell viability
Value Observed: 105

Compound: COC(=O)Nc1nc2ccc([S+]([O-])c3ccccc3)cc2[nH]1 (stereo not drawn)
Readout: cell viability
Value Observed: 118

Compound: CC(C)[N+]1(C)C2CCC1CC(OC(=O)C(CO)c1ccccc1)C2.O.[Br-] (stereo not drawn)
Readout: cell viability
Value Observed: 128

Compound: C[N]1C=C(C=N1)C2=CC=C3N=CC\4=C(N(C(=O)\C=C4)C5=CC6=C(CCN6C(=O)C=C)C=C5)C3=C2
Readout: cell viability
Value Observed: 110

Compound: NC[C@H]1O[C@H](O[C@H]2[C@H](O)[C@@H](O[C@H]3O[C@H](CO)[C@@H](O)[C@H](N)[C@H]3O)[C@H](N)C[C@@H]2N)[C@H](N)C[C@@H]1O
Readout: cell viability
Value Observed: 107

Compound: Cc1c(C(=O)c2cccc3ccccc23)c2cccc3c2n1[C@H](CN1CCOCC1)CO3
Readout: cell viability
Value Observed: 87.8

Compound: N#CC[C@H](C1CCCC1)n1cc(-c2ncnc3[nH]ccc23)cn1
Readout: cell viability
Value Observed: 103

Compound: Cc1cnc(Nc2ccc(CN3CCOCC3)cc2)nc1Nc1cccc([S+](=O)([O-])NC(C)(C)C)c1
Readout: cell viability
Value Observed: 87.7

Compound: CC(C)n1cnc2c(NCCc3ccc(O)cc3)nc(-c3csc4ccccc34)nc21
Readout: cell viability
Value Observed: 116

Compound: O=C(NCC1CCOCC1)c1cnc(Nc2ccc(Cl)cc2Cl)nc1C(F)(F)F
Readout: cell viability
Value Observed: 130

Compound: Cc1ccc(/C=N/NC(=O)c2ccccc2Oc2ccccc2)o1
Readout: cell viability
Value Observed: 91.3

Compound: CO[C@@H]1[C@@H](O)[C@H](O)[C@@H](n2c3c(Cl)cccc3c3c4c(c5c6cccc(Cl)c6[nH]c5c32)C(=O)NC4=O)O[C@H]1CO
Readout: cell viability
Value Observed: 94.9

Compound: Nc1nc(N)c(N=O)c(OCC2CCCCC2)n1
Readout: cell viability
Value Observed: 98.2

Compound: COc1ccc([S+](=O)([O-])Nc2cccnc2Nc2ccc(O)cc2)cc1
Readout: cell viability
Value Observed: 120

Taken from the supplement of paper PMC11451515.
